Field: pKd. Provide a value for each of the binders that follow.
biological target: recombinant human or murine heat shock protein 70 (hsp70) (human or murine), P0DMV8; assay: binding inhibition assay (Hill plot) against tritiated … on hsp70
Sequence (P0DMV8 whole entry): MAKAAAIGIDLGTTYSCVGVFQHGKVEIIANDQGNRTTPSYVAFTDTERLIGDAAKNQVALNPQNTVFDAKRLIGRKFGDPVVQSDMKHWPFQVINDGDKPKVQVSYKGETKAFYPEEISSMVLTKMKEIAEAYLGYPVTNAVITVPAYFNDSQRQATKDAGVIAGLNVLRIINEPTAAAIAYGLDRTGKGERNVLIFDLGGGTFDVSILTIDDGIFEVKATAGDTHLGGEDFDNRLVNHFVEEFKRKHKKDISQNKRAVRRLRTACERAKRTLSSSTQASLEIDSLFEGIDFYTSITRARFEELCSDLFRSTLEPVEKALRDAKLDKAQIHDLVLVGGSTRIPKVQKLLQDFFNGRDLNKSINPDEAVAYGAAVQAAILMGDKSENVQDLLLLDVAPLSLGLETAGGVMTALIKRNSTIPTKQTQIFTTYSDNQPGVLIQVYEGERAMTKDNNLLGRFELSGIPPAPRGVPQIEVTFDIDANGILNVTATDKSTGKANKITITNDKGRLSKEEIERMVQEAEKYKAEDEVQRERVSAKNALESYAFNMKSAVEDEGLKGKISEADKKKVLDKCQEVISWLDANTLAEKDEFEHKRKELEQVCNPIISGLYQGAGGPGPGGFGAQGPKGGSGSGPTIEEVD
// pKd is dimensionless: -log10 of concentration (M)

Provide only the value of recorded pKd for TLGIVCPI (modifications not checked) [TLGIVCPI (HPV Strain 16 E7 86-93)] 3.73

Please look at this binder and report its pKd: HWDFAWPWGSGSIINFEKL (modifications not checked) [HWDFAWPWgsgSIINFEKL] 5.37

Find the measured pKd of HWDFAWPW (modifications not checked) and report it. 3.92

Report pKd, nothing else, for this binder: ALFDIESKVGSGNLLRLTGW (modifications not checked) [PSMA P2 hybrid antigen with NLLRLTGW] 5.89
